Source of measurements: patent US20120316071A1

# ELISA signal values compiled below
# subjectOfTest: T1, Recombinant Human DLL4 (human, UniProt Q9NR61 27-524)
# T1 construct: Bought recombinant human DLL4 (R&D Systems 1506-D4/CF); also called delta-like protein 4; rHuman DLL4
# assayText: ELISA on plate-coated DLL4, Fab at 0.74 nM (3-fold serial dilution)
Give the figure only, with no unit attached.

{"binder": "Fab VH1-46_IGHD6-6*01_IGHJ1*01 S102A/S103P/S104F/H111F N52L/S54T/G56H & L6_IGKJ1*01 S28N/S30D/S31H S52L/A55S (Fab, V domains shown, Fab expressed in E. coli: VH joined to CH1 from Plasmid A (His6 and Flag tags), VL joined to kappa CL from Plasmid C; also called H:APFF LTH & L:NDH LS) VH: QVQLVQSGAEVKKPGASVKVSCKASGYTFTSYYMHWVRQAPGQGLEWMGIILPTGHSTSYAQKFQGRVTMTRDTSTSTVYMELSSLRSEDTAVYYCAREEYAPFSAEYFQFWGQGTLVTVSS VL: EIVLTQSPATLSLSPGERATLSCRASQNVDHYLAWYQQKPGQAPRLLIYDALNRSTGIPARFSGSGSGTDFTLTISSLEPEDFAVYYCQQRSNWPPWTFGQGTKVEIKR", "reportedResult": 0.398}

Continue with the binder presented below.
query: Look up and report measured ELISA signal for this entry: Fab VH1-46_IGHD6-6*01_IGHJ1*01 S102A/S103P/S104F/H111F I51V/N52L/S54T/G56H & L6_IGKJ1*01 S28N/S30D/S31H S52L/A55S (Fab, V domains shown, Fab expressed in E. coli: VH joined to CH1 from Plasmid A (His6 and Flag tags), VL joined to kappa CL from Plasmid C; also called H:APFF VLTH & L:NDH LS) VH: QVQLVQSGAEVKKPGASVKVSCKASGYTFTSYYMHWVRQAPGQGLEWMGIVLPTGHSTSYAQKFQGRVTMTRDTSTSTVYMELSSLRSEDTAVYYCAREEYAPFSAEYFQFWGQGTLVTVSS VL: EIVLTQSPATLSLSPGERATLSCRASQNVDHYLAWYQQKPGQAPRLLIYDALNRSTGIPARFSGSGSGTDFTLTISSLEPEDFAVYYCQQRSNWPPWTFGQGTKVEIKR
result: 0.263
